Catalogue of growth readings, one per entry.
Tested on: E. coli TESEC Mtb Alr
PROCEDURE_SUMMARY: growth (OD600 after 10 h); higher = more growth (less inhibition)
CONDITION_CONTEXT: arabinose 10000 nM; compound 0.1 mM; raw OD600 reference: median of DMSO wells 0.264, cell-free background 0.041
Where a name gives a salt, the structure may show the parent alone.

| COMPOUND | growth |
| --- | --- |
| CNC[C@H](O)[C@@H](O)[C@H](O)[C@H](O)CO [Meglumine] | 0.254 |
| CC(=O)N(CC(O)CN(C(C)=O)c1c(I)c(C(=O)NCC(O)CO)c(I)c(C(=O)NCC(O)CO)c1I)c1c(I)c(C(=O)NCC(O)CO)c(I)c(C(=O)NCC(O)CO)c1I (stereo not given) [Iodixanol] | 0.26 |
| CC(C)n1c(/C=C/C(O)CC(O)CC(=O)O)c(-c2ccc(F)cc2)c2ccccc21 (stereo not given) [Fluvastatin sodium salt] | 0.192 |
| CC(=O)Nc1ccc(O)cc1 [Acetaminophen] | 0.277 |
| C[C@@](Cc1ccc(O)c(O)c1)(NN)C(=O)O [Carbidopa] | 0.118 |
